# tested on: Voltage-gated inwardly rectifying potassium channel KCNH2 (Homo sapiens) (UniProt Q12809)
# Sequence (Q12809 whole entry, looked up): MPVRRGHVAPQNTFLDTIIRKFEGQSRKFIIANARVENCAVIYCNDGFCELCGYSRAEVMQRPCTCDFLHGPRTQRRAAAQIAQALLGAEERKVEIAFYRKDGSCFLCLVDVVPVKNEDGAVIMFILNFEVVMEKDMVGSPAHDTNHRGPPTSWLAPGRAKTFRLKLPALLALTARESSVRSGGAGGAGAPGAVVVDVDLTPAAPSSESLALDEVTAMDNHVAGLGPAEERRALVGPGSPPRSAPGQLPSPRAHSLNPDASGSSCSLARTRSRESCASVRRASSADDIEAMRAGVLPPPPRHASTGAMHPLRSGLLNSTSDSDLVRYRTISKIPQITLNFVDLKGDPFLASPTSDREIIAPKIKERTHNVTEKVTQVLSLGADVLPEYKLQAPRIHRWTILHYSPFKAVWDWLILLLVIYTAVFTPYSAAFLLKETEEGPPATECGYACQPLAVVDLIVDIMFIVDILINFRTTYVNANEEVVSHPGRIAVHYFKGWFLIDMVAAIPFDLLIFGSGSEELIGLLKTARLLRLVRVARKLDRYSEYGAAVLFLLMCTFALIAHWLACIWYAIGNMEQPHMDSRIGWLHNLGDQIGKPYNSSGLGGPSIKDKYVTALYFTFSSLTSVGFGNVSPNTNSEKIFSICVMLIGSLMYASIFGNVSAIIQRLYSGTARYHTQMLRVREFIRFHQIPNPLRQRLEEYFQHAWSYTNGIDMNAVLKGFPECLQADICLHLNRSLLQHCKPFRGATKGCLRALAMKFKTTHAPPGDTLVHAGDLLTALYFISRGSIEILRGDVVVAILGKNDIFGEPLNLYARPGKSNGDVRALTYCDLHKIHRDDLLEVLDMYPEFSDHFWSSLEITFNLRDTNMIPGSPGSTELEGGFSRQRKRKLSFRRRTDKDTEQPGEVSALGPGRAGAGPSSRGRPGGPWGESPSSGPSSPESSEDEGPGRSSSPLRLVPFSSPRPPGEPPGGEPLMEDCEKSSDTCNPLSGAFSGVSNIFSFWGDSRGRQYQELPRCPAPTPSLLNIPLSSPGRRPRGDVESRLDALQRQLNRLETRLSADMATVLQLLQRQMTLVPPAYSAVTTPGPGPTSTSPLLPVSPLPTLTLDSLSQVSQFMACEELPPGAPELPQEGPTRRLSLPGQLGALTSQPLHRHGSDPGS
# assay info: hERG channel inhibition, SAR follow-up, selectivity assay for KCNK9 inhibitor project, FluxOR Tl flux, hERG cells, CRC 2 (AID 540323)
# settings: hERG-expressing cells, FluxOR thallium flux fluorescence; at 30 µM (top of the series); test wells contain dofetilide at its IC70
Calls of active or inactive are those of the source.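 The calls were made as follows: active = peak hERG channel inhibition above 30% at some tested dose, together with a fitted dose response curve; inactive = no hERG inhibition at any dose, or no curve.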

compound | fluorescence ratio, lower = inhibition
CCOc1ccccc1NC(=O)c1cccc(NC(=O)C2CCCCC2)c1 | inactive
Cc1cccc(C(=O)Nc2ccccc2NC(=O)c2ccccc2)c1 | inactive
CC(C1CC2CCC1C2)n1c(C2CCOC2)n[nH]c1=S (stereo unspecified) | inactive
CC(C1CC2CCC1C2)n1c(-c2ccccc2Cl)n[nH]c1=S (stereo unspecified) | inactive
Cc1cccc(C(=O)Nc2cccc(NC(=O)c3cccc(C(F)(F)F)c3)c2)c1 | inactive
COc1ccc(-c2n[nH]c(=S)n2C(C)C2CC3CCC2C3)cc1 (stereo unspecified) | inactive
O=C(Nc1cccc(NC(=O)c2ccoc2)c1)c1ccccc1 | inactive
COc1cccc(-c2n[nH]c(=S)n2C(C)C2CC3CCC2C3)c1 (stereo unspecified) | inactive
O=C(Nc1cccc(NC(=O)c2cccc(Cl)c2)c1)c1ccccc1 | inactive
Cc1cccc(C(=O)Nc2cccc(NC(=O)c3ccccc3OCC(C)C)c2)c1 | inactive
COc1ccccc1C(=O)Nc1cccc(NC(=O)c2ccccc2C)c1 | inactive
